- Test Description: Cytotoxicity against mouse Neuro2a cells
- Assay type: cell-based, N2a
- Experimental Parameters: read-out: LD50 (the source's name)
Entries and their measured CC50 follow.
Answer with a number only, understood to be in µM.

Known CC50 results, listed for orientation:
compound=C=C1CC(=O)N[C@@H](C)C(=O)N(C)[C@@H](C(C)C)C(=O)NCC(=O)O[C@@H](/C(C)=C/C(C)=C/C(C)(C)C)[C@H]1C measurement_units=µM data_value=5
compound=C=C1CC(=O)N[C@@H](C)C(=O)N(C)[C@@H](C(C)C)C(=O)NCC(=O)O[C@H](/C(C)=C/C(C)=C/C(C)(C)C)[C@H]1C measurement_units=µM data_value=10
compound="C=C1CC(=O)N[C@@H](C)C(=O)N(C)[C@@H](C(C)C)C(=O)NCC(=O)O[C@@H](/C(C)=C/C(C)=C/C(C)(C)C)[C@@H]1C [ANTILLATOXIN]" measurement_units=µM data_value=0.18

Please find the next compound below.
Query: If you can, please state the reported CC50 value of C=C1CC(=O)N[C@@H](C)C(=O)N(C)[C@@H](C(C)C)C(=O)NCC(=O)O[C@H](/C(C)=C/C(C)=C/C(C)(C)C)[C@@H]1C .
Reply: 10
